Assay: UV absorption spectrum in acetonitrile
Type: physicochemical
Parameter Measured: ε at 365 nm

{"Compound": "CCCCC(CC)Cc1ccc2c3c(cccc13)C(=O)N(OS(=O)(=O)c1ccc(C)cc1)C2=O (stereo not drawn)", "ε at 365 nm": "1.24 × 10^4"}
{"Compound": "CCCCCCCCCCCCCCc1ccc2c3c(cccc13)C(=O)N(OS(=O)(=O)c1ccc(C)cc1)C2=O", "ε at 365 nm": "1.05 × 10^4"}
{"Compound": "CCc1ccc2c3c(cccc13)C(=O)N(OS(=O)(=O)C(F)(F)F)C2=O", "ε at 365 nm": "9.95 × 10^3"}
{"Compound": "CCCCc1ccc2c3c(cccc13)C(=O)N(OS(=O)(=O)c1ccc(C(F)(F)F)cc1)C2=O", "ε at 365 nm": "1.11 × 10^4"}
{"Compound": "CCCCc1ccc2c3c(cccc13)C(=O)N(OS(=O)(=O)CC13CCC(CC1=O)C3(C)C)C2=O (stereo not drawn)", "ε at 365 nm": "1.17 × 10^4"}
{"Compound": "CCCCc1ccc2c3c(cccc13)C(=O)N(OS(=O)(=O)c1ccc(C)cc1)C2=O", "ε at 365 nm": "1.02 × 10^4"}
{"Compound": "CC1(C)C2CCC1(CS(=O)(=O)ON1C(=O)c3cccc4cccc(c34)C1=O)C(=O)C2 (stereo not drawn) [Comparative Compound 1, reference compound]", "ε at 365 nm": "6.48 × 10^2"}
{"Compound": "CCCCc1ccc2c3c(cccc13)C(=O)N(OS(=O)(=O)C(F)(F)F)C2=O", "ε at 365 nm": "1.16 × 10^4"}

So, `CCCCc1ccc2c3c(cccc13)C(=O)N(OS(=O)(=O)c1c(C(C)C)cc(C(C)C)cc1C(C)C)C2=O` ? Its ε at 365 nm was 1.06 × 10^4
